B1: Cytoplasmic polyadenylation element-binding protein 2, residues 513 to 575; numbered along this chain, Q7Z5Q1 (parent)
chain: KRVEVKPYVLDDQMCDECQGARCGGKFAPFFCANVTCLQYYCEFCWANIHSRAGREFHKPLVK

Variants of: B1
Experiment: abundance fitness (aPCA) (normalised: wild type 0, dead -1); higher = more abundant; growth selection in yeast, the domain comes from the species named
Settings: Homo sapiens
Class field: derived from abundance fitness; ranges lower: < -0.4; middle: ≥ -0.4 and < -0.08; upper: ≥ -0.08

| mutantCode | groupLabel |
| --- | --- |
| H58S | lower |
| C45P | lower |
| C45R | lower |
| R55H | middle |
| E43I | lower |

Which abundance fitness band matches E43K ?
middle

Which abundance fitness band matches K26L ?
middle

Which abundance fitness band matches L38A ?
upper

Which abundance fitness band matches N48D ?
upper

Which abundance fitness band matches A28D ?
lower
